Entries annotated with measured MIC
tested on: S. maltophilia CAN-ICU 62584; format: cell-based
Peptide text beside a SMILES is read from it. * marks the point of attachment. Acetyl(1-adamantyl) = O=C(CC12CC3CC(CC(C3)C1)C2)*; Lauroyl = CCCCCCCCCCCC(=O)*
property.measured: MIC

compound	property.measured	observed.value
N=C(N)NCCC[C@H](NC(=O)[C@@H]1CCCN1C(=O)CNC(=O)[C@@H]1CCCN1C(=O)[C@H](CCCNC(=N)N)NC(=O)[C@@H]1CCCN1C(=O)CC12CC3CC(CC(C3)C1)C2)C(=O)N1CCC[C@H]1C(N)=O [Ad-PGP, Adamantyl-CH2CO-PRPGPRP-NH2] ({Acetyl(1-adamantyl)}-PRPGPRP-NH2)	MIC	>128 µg/mL
CCCCCCCCCCCC(=O)N1CCC[C@H]1C(=O)N[C@@H](CCCNC(=N)N)C(=O)N1CCC[C@H]1C(=O)N[C@@H](CC(C)C)C(=O)N1CCC[C@H]1C(=O)N[C@@H](CCCNC(=N)N)C(=O)N1CCC[C@H]1C(N)=O [Compound C12-PLP, CH3(CH2)10CO-PRPLPRP-NH2] (Lauroyl-PRPLPRP-NH2)	MIC	>128 µg/mL

----------
Entries annotated with measured MHC (minimum concentration that resulted in 5% red blood cell hemolysis)
Tested on: pig erythrocytes
Assay type: cell-based
Settings: red cells of porcine
Experimental: Since PRAMPs are able to kill bacteria through membrane lysis, it is imperative to evaluate whether these synthesized SPRLPs also lyse eukaryotic membranes. The ability to lyse porcine red blood cells was assessed and the minimum concentration to result in 5% erythrocyte hemolysis (MHC) was reported (Tables 2 & 3). […] This greatly limits their therapeutic potential. […] However, all other SPRLPs were non-hemolytic (MHC>512 μg/mL). […]
Peptide text beside a SMILES is read from it. * marks the point of attachment. Acetyl(1-adamantyl) = O=C(CC12CC3CC(CC(C3)C1)C2)*; Octanoyl = CCCCCCCC(=O)*
property.measured: MHC (minimum concentration that resulted in 5% red blood cell hemolysis)

molecule	observed.value
CCCCCCCC(=O)N1CCC[C@H]1C(=O)N[C@@H](CCCNC(=N)N)C(=O)N1CCC[C@H]1C(=O)N[C@@H](CCCNC(=N)N)C(=O)N1CCC[C@H]1C(=O)N[C@@H](CCCNC(=N)N)C(=O)N1CCC[C@H]1C(N)=O [Compound C8-PRP, CH3(CH2)6CO-PRPRPRP-NH2] (Octanoyl-PRPRPRP-NH2)	>512 µg/mL
CCCCCCCC(=O)N1CCC[C@H]1C(=O)N[C@@H](CCCNC(=N)N)C(=O)N1CCC[C@H]1C(=O)N[C@@H](CC(C)C)C(=O)N1CCC[C@H]1C(=O)N[C@@H](CCCNC(=N)N)C(=O)N1CCC[C@H]1C(N)=O [Compound C8-PLP, CH3(CH2)6CO-PRPLPRP-NH2] (Octanoyl-PRPLPRP-NH2)	>512 µg/mL
CC(C)C[C@H](NC(=O)[C@@H]1CCCN1C(=O)[C@H](CCCNC(=N)N)NC(=O)[C@@H]1CCCN1C(=O)CC12CC3CC(CC(C3)C1)C2)C(=O)N1CCC[C@H]1C(=O)N[C@@H](CCCNC(=N)N)C(=O)N1CCC[C@H]1C(N)=O [Ad-PLP, Adamantyl-CH2CO-PRPLPRP-NH2] ({Acetyl(1-adamantyl)}-PRPLPRP-NH2)	>512 µg/mL
